The measurements presented in this section are drawn from paper PMC12391391.

# Assay method text: physchem
# Parameters: aqueous solubility at pH 7.0
# Setup conditions: pH 7.0; buffer pH 7.0; aqueous buffer pH 7.0
Short version: solubility at least 70 µM is 1, less is 0.

Query :: Textbook exercise: given the entry `CNC(=O)c1c[nH]c2ncc(-c3cn(C)c4ccccc34)nc12` , state whether its solubility is greater than or equal to 70 µM.
Result :: 0

Query :: Textbook exercise: given the entry `CNC(=O)c1c[nH]c2ncc(-c3ccc(N4CCN(C)CC4)cc3)nc12` , state whether its solubility is greater than or equal to 70 µM.
Result :: 1

Query :: Textbook exercise: given the entry `CNC(=O)c1c[nH]c2ncc(-c3ccc(OCCN4CCC(OC)CC4)cc3)nc12` , state whether its solubility is greater than or equal to 70 µM.
Result :: 1

Query :: Textbook exercise: given the entry `CNC(=O)c1c[nH]c2ncc(-c3ccc(OCCN4CCCCC4)cc3)nc12` , state whether its solubility is greater than or equal to 70 µM.
Result :: 1

----------
# Tgt: Greatwall kinase (GWL, MASTL) (Homo sapiens, UniProt Q96GX5, K72M)
# Construct: full-length
# Sequence (Q96GX5 1-879 K72M): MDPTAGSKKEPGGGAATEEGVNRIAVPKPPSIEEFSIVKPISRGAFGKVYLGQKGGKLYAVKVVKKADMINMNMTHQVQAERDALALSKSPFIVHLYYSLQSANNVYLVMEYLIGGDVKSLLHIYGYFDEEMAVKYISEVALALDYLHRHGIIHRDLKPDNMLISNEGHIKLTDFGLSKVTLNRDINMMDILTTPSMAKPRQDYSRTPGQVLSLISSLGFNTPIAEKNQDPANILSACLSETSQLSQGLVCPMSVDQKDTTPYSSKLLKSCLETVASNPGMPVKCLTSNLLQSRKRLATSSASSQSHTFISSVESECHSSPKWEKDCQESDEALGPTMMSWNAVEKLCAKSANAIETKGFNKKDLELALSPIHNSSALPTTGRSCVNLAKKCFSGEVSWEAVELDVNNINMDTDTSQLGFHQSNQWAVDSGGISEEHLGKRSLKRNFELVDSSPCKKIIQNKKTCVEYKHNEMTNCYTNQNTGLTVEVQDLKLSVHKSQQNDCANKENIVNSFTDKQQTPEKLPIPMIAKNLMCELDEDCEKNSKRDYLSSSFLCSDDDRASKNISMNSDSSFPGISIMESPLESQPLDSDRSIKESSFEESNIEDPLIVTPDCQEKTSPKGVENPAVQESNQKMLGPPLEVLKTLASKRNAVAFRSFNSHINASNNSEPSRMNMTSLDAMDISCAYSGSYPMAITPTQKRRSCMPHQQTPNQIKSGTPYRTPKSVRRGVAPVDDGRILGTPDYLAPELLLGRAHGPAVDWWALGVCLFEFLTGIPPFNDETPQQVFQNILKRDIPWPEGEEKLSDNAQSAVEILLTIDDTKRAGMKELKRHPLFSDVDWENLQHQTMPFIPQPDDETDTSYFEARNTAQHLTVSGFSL
# Assay method text: biochemical
# Set-up: HTRF kinase assay with full-length GWL and ENSA, inhibition
Assignment: determine reported pIC50 for the given compounds.
Convention used: pIC50 is expressed as -log10 of the molar concentration.

Query :: Form field: reported pIC50 of `CNC(=O)c1c[nH]c2ncc(-c3ccc(OCCN4CCN(C)CC4)cc3)nc12`
Result :: 7.51

Query :: Form field: reported pIC50 of `CNC(=O)c1c[nH]c2ncc(OCCN3CCCC3)nc12`
Result :: 5.23

Query :: Form field: reported pIC50 of `CNC(=O)c1c[nH]c2ncc(-c3ccc(C(=O)NCCN(C)C)cc3)nc12`
Result :: 7.03

Query :: Form field: reported pIC50 of `CNC(=O)c1c[nH]c2ncc(-c3ccc(OCCN4CCOCC4)cc3)nc12`
Result :: 6.72

Query :: Form field: reported pIC50 of `CNC(=O)c1c[nH]c2ncc(-c3cccc(CN(C)C)c3)nc12`
Result :: 6.69

Query :: Form field: reported pIC50 of `CNC(=O)c1c[nH]c2ncc(-c3cccnc3)nc12`
Result :: 6.29

Query :: Form field: reported pIC50 of `CNC(=O)c1c[nH]c2ncc(-c3ccc(OCCN4CCN(C(C)=O)CC4)cc3)nc12`
Result :: 7.10

Query :: Form field: reported pIC50 of `CNC(=O)c1c[nH]c2ncc(-c3cccc(C(=O)NCCN(C)C)c3)nc12`
Result :: 7.21

Query :: Form field: reported pIC50 of `CNC(=O)c1c[nH]c2ncc(-c3ccc(C#N)cc3)nc12`
Result :: 6.47

Query :: Form field: reported pIC50 of `CNC(=O)c1c[nH]c2ncc(N3CCN(C)CC3)nc12`
Result :: 5.37

----------
# Tgt: Greatwall kinase (GWL, MASTL) (Homo sapiens, UniProt Q96GX5, K72M)
# Construct: full-length
# Assay method text: HTRF kinase assay with purified full-length GWL (K72M) and ENSA
# Assay type: biochemical
Property measured: IC50 (nM)
Respond with the bare value in nM.

Query :: Record CNC(=O)c1c[nH]c2ncc(-c3ccc(OCCN4CC[C@@H](c5ccccc5)C4)cc3)nc12 [21 (S), compound 21, S stereoisomer] : what is its IC50 with Greatwall kinase (GWL, MASTL) (Homo sapiens, UniProt Q96GX5, K72M)?
Result :: 10.9

Query :: Record CNC(=O)c1c[nH]c2ncc(-c3ccc(OCCN4CCC(c5ccccc5)C4)cc3)nc12 (racemic) : what is its IC50 with Greatwall kinase (GWL, MASTL) (Homo sapiens, UniProt Q96GX5, K72M)?
Result :: 9

Query :: Record CNC(=O)c1c[nH]c2ncc(-c3ccc(OCCN4CC[C@H](c5ccccc5)C4)cc3)nc12 [21 (R), compound 21, R stereoisomer] : what is its IC50 with Greatwall kinase (GWL, MASTL) (Homo sapiens, UniProt Q96GX5, K72M)?
Result :: 13.3

----------
# Assay method text: in vitro
# Parameters: intrinsic clearance in human microsomes
# Setup conditions: liver microsomes; human liver microsomes; read-out: Cl (human)
Property measured: microsomal CLint (µL/min/mg)
Respond with the bare value in µL/min/mg.

Query :: Form field: reported microsomal CLint of `CNC(=O)c1c[nH]c2ncc(-c3cn(C)c4ccccc34)nc12`
Result :: 147

Query :: Form field: reported microsomal CLint of `CNC(=O)c1c[nH]c2ncc(-c3ccc(N4CCN(C)CC4)cc3)nc12`
Result :: 9

Query :: Form field: reported microsomal CLint of CNC(=O)c1c[nH]c2ncc(-c3ccc(OCCN4CCC(c5ccccc5)C4)cc3)nc12 (racemic)
Result :: 13

----------
# Assay method text: in vitro
# Design: intrinsic clearance in human microsomes
# Setup conditions: liver microsomes; human liver microsomes; read-out: hMic Clint
Property measured: microsomal CLint (µL/min/mg)
Respond with the bare value in µL/min/mg.

Query :: Form field: reported microsomal CLint of `CNC(=O)c1c[nH]c2ncc(-c3cn(C)c4ccccc34)nc12`
Result :: 45

----------
# Assay method text: in vitro
# Set-up: intrinsic clearance in mouse microsomes
# Setup conditions: liver microsomes; mouse liver microsomes
Assignment: determine reported microsomal CLint for the given molecules.
Respond with the bare value in µL/min/mg.

Query :: Form field: reported microsomal CLint of `CNC(=O)c1c[nH]c2ncc(-c3cn(C)c4ccccc34)nc12`
Result :: 196

Query :: Form field: reported microsomal CLint of `CNC(=O)c1c[nH]c2ncc(-c3ccc(OCCN4CCCCC4)cc3)nc12`
Result :: 12

Query :: Form field: reported microsomal CLint of CNC(=O)c1c[nH]c2ncc(-c3ccc(OCCN4CCC(c5ccccc5)C4)cc3)nc12 (racemic)
Result :: 24

Query :: Form field: reported microsomal CLint of `CNC(=O)c1c[nH]c2ncc(-c3ccc(OCCN4CCN(C(C)=O)CC4)cc3)nc12`
Result :: 7

----------
# Tgt: HIPK2 (Homo sapiens)
# Sequence (Q9H2X6 whole entry): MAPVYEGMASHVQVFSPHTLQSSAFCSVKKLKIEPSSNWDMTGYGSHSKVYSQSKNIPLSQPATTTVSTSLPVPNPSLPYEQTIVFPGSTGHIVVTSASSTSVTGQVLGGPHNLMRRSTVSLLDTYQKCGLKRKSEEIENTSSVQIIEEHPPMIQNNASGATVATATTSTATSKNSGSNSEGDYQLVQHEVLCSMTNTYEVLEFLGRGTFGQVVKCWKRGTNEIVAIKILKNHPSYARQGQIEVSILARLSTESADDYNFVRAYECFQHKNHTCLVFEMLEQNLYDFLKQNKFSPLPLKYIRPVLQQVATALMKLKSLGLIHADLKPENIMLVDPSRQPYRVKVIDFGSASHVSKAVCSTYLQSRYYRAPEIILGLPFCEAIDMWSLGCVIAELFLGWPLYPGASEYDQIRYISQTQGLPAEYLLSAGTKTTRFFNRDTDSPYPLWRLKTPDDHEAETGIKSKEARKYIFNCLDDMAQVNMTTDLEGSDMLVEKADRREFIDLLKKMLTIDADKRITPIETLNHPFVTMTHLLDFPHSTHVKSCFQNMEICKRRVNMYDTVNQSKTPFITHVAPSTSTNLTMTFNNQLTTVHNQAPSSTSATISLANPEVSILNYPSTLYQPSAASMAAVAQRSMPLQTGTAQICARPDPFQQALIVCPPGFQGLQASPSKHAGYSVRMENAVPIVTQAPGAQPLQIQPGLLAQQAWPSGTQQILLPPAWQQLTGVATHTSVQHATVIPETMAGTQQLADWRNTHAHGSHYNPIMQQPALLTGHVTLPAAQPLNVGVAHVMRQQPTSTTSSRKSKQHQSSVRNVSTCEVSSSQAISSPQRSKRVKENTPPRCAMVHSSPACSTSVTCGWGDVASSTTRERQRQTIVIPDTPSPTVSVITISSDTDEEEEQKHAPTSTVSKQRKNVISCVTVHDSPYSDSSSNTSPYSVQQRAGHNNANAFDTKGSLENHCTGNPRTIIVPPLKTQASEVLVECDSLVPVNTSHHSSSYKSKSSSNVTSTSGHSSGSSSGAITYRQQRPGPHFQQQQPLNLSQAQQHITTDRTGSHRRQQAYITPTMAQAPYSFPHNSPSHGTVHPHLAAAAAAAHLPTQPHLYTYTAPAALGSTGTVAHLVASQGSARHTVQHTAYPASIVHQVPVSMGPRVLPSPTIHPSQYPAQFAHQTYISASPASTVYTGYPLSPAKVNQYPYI
# Assay method text: biochemical
# Set-up: LanthaScreen kinase activity assay (Thermo Fisher), dose-dependent inhibition by C-604
# Setup conditions: read-out: IC50 (C-604)
Property measured: IC50 (µM)
Respond with the bare value in µM.

Query :: Record CNC(=O)c1c[nH]c2ncc(-c3ccc(OCCN4CCC(c5ccccc5)C4)cc3)nc12 (racemic) [compound 21, C-604] : what is its IC50 with HIPK2 (Homo sapiens)?
Result :: 0.043

----------
# Tgt: STK17A (Homo sapiens)
# Sequence (Q9UEE5 whole entry): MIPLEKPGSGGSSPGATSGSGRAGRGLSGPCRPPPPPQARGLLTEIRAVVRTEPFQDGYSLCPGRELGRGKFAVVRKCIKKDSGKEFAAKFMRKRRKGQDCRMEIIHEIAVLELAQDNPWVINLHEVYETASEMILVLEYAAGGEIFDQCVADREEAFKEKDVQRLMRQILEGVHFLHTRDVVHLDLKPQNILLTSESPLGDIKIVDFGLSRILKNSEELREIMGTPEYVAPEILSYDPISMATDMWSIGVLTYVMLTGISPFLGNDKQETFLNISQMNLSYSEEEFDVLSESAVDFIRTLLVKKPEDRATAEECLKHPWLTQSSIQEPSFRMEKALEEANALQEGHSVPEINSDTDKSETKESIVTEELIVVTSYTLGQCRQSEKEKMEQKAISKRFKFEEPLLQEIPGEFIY
Property measured: pIC50
Convention used: pIC50 is expressed as -log10 of the molar concentration.

Query :: Record CNC(=O)c1c[nH]c2ncc(-c3ccc(OCCN4CCC(c5ccccc5)C4)cc3)nc12 (racemic) [compound 21, C-604] : what is its pIC50 with STK17A (Homo sapiens)?
Result :: 6.81

----------
Assignment: determine reported microsomal CLint for the given compounds.
# Assay method text: in vitro
# Design: intrinsic clearance in mouse microsomes
# Setup conditions: liver microsomes; mouse liver microsomes
# Excerpt: We selected compound 1 as the lead exemplar of cluster 3 and leveraged it as a foundation for subsequent drug development (Fig. 1a). Structure-activity relationship studies and pharmacokinetic profiling produced several derivative molecules, of which compound 21 provided the best combination of outstanding inhibitory potential, low clearance in mouse microsomes and acceptable solubility (Fig. 1a–c and Supplementary Tables 1–4). […]
Respond with the bare value in µL/min/mg.

Query :: Form field: reported microsomal CLint of CNC(=O)c1c[nH]c2ncc(-c3ccc(N4CCN(C)CC4)cc3)nc12 [compound 14, 14]
Result :: 83

Query :: Form field: reported microsomal CLint of CNC(=O)c1c[nH]c2ncc(-c3ccc(OCCN4CCN(C)CC4)cc3)nc12 [compound 16, 16]
Result :: 18

Query :: Form field: reported microsomal CLint of CNC(=O)c1c[nH]c2ncc(-c3ccc(OCCN4CCCC4)cc3)nc12 [compound 19, 19]
Result :: 37

Query :: Form field: reported microsomal CLint of CNC(=O)c1c[nH]c2ncc(-c3ccc(OCCN4CCOCC4)cc3)nc12 [compound 15, 15]
Result :: 11
